# tested system: full-length beta-Catenin (Uniprot ID P35222) (Homo sapiens (Human)) (UniProt P35222)
# procedure text: fluorescence polarization competition; 10 nM full-length beta-catenin, 10 nM 5FAM-TCF4(10-53) probe
pIC50: −log10 of the molar value. Starred links: 1 amine or outer side, 2 acyl side, 3 side chain; linkers in the order of their positions; H or OH if unused. Positions of bridges follow the written chain, without caps; N, C: chain ends. Non-standard residues stand in square brackets, D forms with d. Primed or numbered codes have the meaning given here. PyrS2″ = (S)-3-amino-1-((pent-4-en-1-yloxy)carbonyl)pyrrolidine-3-carboxylic acid (stapling residue), C=CCCCOC(=O)N1CC[C@@](N[*:1])(C(=O)[*:2])C1; B5(4) = 2,2-bis(4-pentenyl)glycine = 2-amino-2-(pent-4-en-1-yl)hept-6-enoic acid (stitching residue), C=CCCCC(CCCC=C)(N[*:1])C(=O)[*:2]; B5(5) = 2,2-bis(4-pentenyl)glycine, 2-amino-2-(pent-4-en-1-yl)hept-6-enoic acid (stitching residue), C=CCCCC(CCCC=C)(N[*:1])C(=O)[*:2]; PyrS2 = (S)-3-amino-1-((pent-4-en-1-yloxy)carbonyl)pyrrolidine-3-carboxylic acid, C=CCCCOC(=O)N1CC[C@@](N[*:1])(C(=O)[*:2])C1; 2COOHF = (S)-2-(2-amino-2-carboxyethyl)benzoic acid, O=C([C@H](Cc1ccccc1C(=O)[*:3])N[*:1])[*:2]; Me2Asn = listed as N4-methyl-L-asparagine, CNC(=O)C[C@H](N[*:1])C(=O)[*:2]; Phe(3-COOH) = N[C@@H](Cc1cccc(C(=O)O)c1)C(=O)O; 2F3MeF = Cc1cccc(C[C@H](N[*:1])C(=O)[*:2])c1F; Phe(2-CF3) = N[C@@H](Cc1ccccc1C(F)(F)F)C(=O)O; Phe(2-Cl) = N[C@@H](Cc1ccccc1Cl)C(=O)O; Bta = N[C@@H](Cc1csc2ccccc12)C(=O)O; Lys(iPr) = CC(C)NCCCC[C@H](N)C(=O)O; αAllylPro = C=CC[C@@]1(C(=O)O)CCCN1; tBuAla = CC(C)(C)C[C@H](N)C(=O)O; 3Thi = N[C@@H](Cc1ccsc1)C(=O)O; Cha = N[C@@H](CC1CCCCC1)C(=O)O; hSer = N[C@@H](CCO)C(=O)O; Nle = CCCC[C@H](N)C(=O)O; Aib = CC(C)(N)C(=O)O
measured attribute: pIC50

Ac-[αAllylPro]N[tBuAla][B5(4)]DQ[Lys(iPr)]A[Cha]L[PyrS2]F[Bta]Q-NH2 (staple 1-4, 4-11) [I-1649]
5.61
Ac-[αAllylPro]D[tBuAla][B5(4)]D[Phe(3-COOH)][Aib]AF[Nle][PyrS2″][3Thi][Bta][(NHEt)GlnR]-NH2 (staple 1-4, 4-11) [I-2552]
7.92
Ac-[αAllylPro]D[tBuAla][B5(5)]D[2COOHF]AAFF[PyrS2″][2F3MeF][Bta]Q-NH2 (staple 1-4, 4-11) [I-1655]
7.32

A: Ac-[αAllylPro]N[tBuAla][B5(4)]DQ[Lys(iPr)]AFL[PyrS2]F[Bta][hSer]-NH2 (staple 1-4, 4-11) [I-1646]
B: Ac-[αAllylPro]D[tBuAla][B5(4)]D[Phe(3-COOH)]SAFL[PyrS2″][3Thi][Bta][tBuAla]-NH2 (staple 1-4, 4-11) [I-2195]
C: Ac-[αAllylPro]N[Cha][B5(4)]DQ[Lys(iPr)]AFL[PyrS2]F[Bta]Q-NH2 (staple 1-4, 4-11) [I-1648]
### Prompt Ascending by pIC50, please. Please, when replying, give the labels in the order that was requested.
### Response A, C, B

I: Ac-[αAllylPro]D[tBuAla][B5(4)]D[Phe(3-COOH)][Nle]AFL[PyrS2″][3Thi][Bta]V-NH2 (staple 1-4, 4-11) [I-2189]
II: Ac-[αAllylPro]D[tBuAla][B5(4)]D[Phe(3-COOH)][Nle]AFL[PyrS2″][3Thi][Bta][tBuAla]-NH2 (staple 1-4, 4-11) [I-2193]
III: Ac-[αAllylPro]N[tBuAla][B5(5)]DQ[Lys(iPr)]AF[Lys(iPr)][PyrS2″]F[Bta][Lys(iPr)]-NH2 (staple 1-4, 4-11) [I-1654]
IV: Ac-[αAllylPro]N[tBuAla][B5(4)]DQ[Lys(iPr)]AFL[PyrS2]F[Bta][tBuAla]-NH2 (staple 1-4, 4-11) [I-1644]
### Prompt Ascending by pIC50, please. Please, when replying, give the labels in the order that was requested.
### Response IV, III, II, I
(IV: 5.00, III: 5.67, II: 6.79, I: 7.08)

A: Ac-[αAllylPro]D[tBuAla][B5(4)]D[Phe(3-COOH)]AAFL[PyrS2″][Phe(2-CF3)][Bta][MorphGln]-NH2 (staple 1-4, 4-11) [I-2541]
B: Ac-[αAllylPro]D[tBuAla][B5(5)]D[2COOHF]AAFF[PyrS2″][Phe(2-Cl)][Bta]Q-NH2 (staple 1-4, 4-11) [I-1657]
### Prompt Name the one with the greater pIC50 value, either A or B as given. Returns: label corresponding to the selected item.
### Response A
(A: 7.68, B: 7.44)

P: Ac-[αAllylPro]D[tBuAla][B5(4)]D[Phe(3-COOH)][Me2Asn]AFL[PyrS2″][3Thi][Bta][tBuAla]-NH2 (staple 1-4, 4-11) [I-2196]
Q: Ac-[αAllylPro]N[tBuAla][B5(5)]DQ[Lys(iPr)]AF[Lys(iPr)][PyrS2″]F[Bta]Q-NH2 (staple 1-4, 4-11) [I-1653]
### Prompt Name the one with the greater pIC50 value, either P or Q as given. Returns: label corresponding to the selected item.
### Response P
(P: 7.39, Q: 6.04)

P: Ac-[αAllylPro]D[tBuAla][B5(4)]D[Phe(3-COOH)]AAFF[PyrS2″][Phe(2-CF3)][Bta][Me2Gln]-NH2 (staple 1-4, 4-11) [I-2534]
Q: Ac-[αAllylPro]N[tBuAla][B5(5)]DQ[Lys(iPr)]AFL[PyrS2″]F[Bta][Cha]-NH2 (staple 1-4, 4-11) [I-1652]
R: Ac-[αAllylPro]N[tBuAla][B5(4)]DQ[Lys(iPr)]AFL[PyrS2]F[Bta][Lys(iPr)]-NH2 (staple 1-4, 4-11) [I-1645]
### Prompt Ascending by pIC50, please. Please, when replying, give the labels in the order that was requested.
### Response Q, R, P
(Q: 5.00, R: 6.03, P: 7.68)
